TARGET_UNDER_TEST: HLA-B*44:02
METHOD_DESCRIPTION: IEDB peptide-MHC binding, purified MHC/competitive/radioactivity; filed as Kd, often an IC50 or EC50 that approximates it; bounds were set here for any values at or beyond the usual limits of such assays
ASSAY_CONTEXT: source organism: Dengue virus 4 Dominica/814669/1981
ATTRIBUTE_MEASURED: Kd
Be sure to follow the number with its unit.

Query: Entry under review: `AENTNSVTNI` . Reported Kd?
Result: 130 nM

###

Kd for assorted sequences
TARGET_UNDER_TEST: HLA-A*02:06
METHOD_DESCRIPTION: IEDB peptide-MHC binding, purified MHC/competitive/radioactivity; filed as Kd, often an IC50 or EC50 that approximates it; bounds were set here for any values at or beyond the usual limits of such assays
ASSAY_CONTEXT: source organism: Mammarenavirus lassaense
# number only, unit µM dropped from output

QUERY_SEQUENCE	TARGET_UNDER_TEST	Kd / µM
LNCLSLLLSV	HLA-A*02:06	0.25

Next, consider the following sequence.
Query: Entry under review: `LLWDYMCIS` . Reported Kd?
Result: 0.408

###

TARGET_UNDER_TEST: HLA-A*26:02
METHOD_DESCRIPTION: IEDB peptide-MHC binding, purified MHC/competitive/fluorescence; filed as Kd, often an IC50 or EC50 that approximates it; bounds were set here for any values at or beyond the usual limits of such assays
ASSAY_CONTEXT: source organism: Influenza A virus H3N2
pKd: −log10 of the molar value.
ATTRIBUTE_MEASURED: pKd

Query: Recorded pKd for `FQKDAKVLF` with HLA-A*26:02, please?
Result: ≤ 4.70

###

IC50 for assorted sequences
TARGET_UNDER_TEST: HLA-A*03:01
METHOD_DESCRIPTION: IEDB peptide-MHC binding, purified MHC/competitive/fluorescence; bounds were set here for any values at or beyond the usual limits of such assays
ASSAY_CONTEXT: source organism: Zaire ebolavirus
# number only, unit µM dropped from output

QUERY_SEQUENCE	TARGET_UNDER_TEST	MEASUREMENT_UNIT	DATA_VALUE
SFASLFLPK	HLA-A*03:01	µM	0.677

Next, consider the following sequence.
Query: Recorded IC50 for `LHPLARTAK` with HLA-A*03:01, please?
Result: 34.6

###

TARGET_UNDER_TEST: HLA-A*02:06
METHOD_DESCRIPTION: IEDB peptide-MHC binding, purified MHC/direct/fluorescence; filed as Kd, often an IC50 or EC50 that approximates it; bounds were set here for any values at or beyond the usual limits of such assays
ASSAY_CONTEXT: source organism: Geobacillus sp. WCH70
ATTRIBUTE_MEASURED: pKd
pKd field: float, defined as -log10 of concentration (mol/L).

Query: Recorded pKd for `GLPESTPSL` with HLA-A*02:06, please?
Result: 7.85

###

TARGET_UNDER_TEST: HLA-A*23:01
METHOD_DESCRIPTION: IEDB peptide-MHC binding, purified MHC/competitive/radioactivity; filed as Kd, often an IC50 or EC50 that approximates it; bounds were set here for any values at or beyond the usual limits of such assays
ASSAY_CONTEXT: source organism: Mammarenavirus brazilense
pKd: −log10 of the molar value.
ATTRIBUTE_MEASURED: pKd

Query: Entry under review: `TERSASGGVY` . Reported pKd?
Result: ≤ 4.35
